B1: TPR 5TU (parent)
chain: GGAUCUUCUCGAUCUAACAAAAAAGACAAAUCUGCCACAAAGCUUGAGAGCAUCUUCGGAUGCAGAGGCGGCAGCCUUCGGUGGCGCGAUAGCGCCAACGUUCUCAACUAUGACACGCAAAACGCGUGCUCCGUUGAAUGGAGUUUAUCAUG

variants of: B1; test: polymerase ribozyme fitness, log enrichment relative to wild type (log ratio); higher = more active; in vitro selection for triplet polymerase activity
This sample holds only a part of the variants without activity.
measure.name: polymerase ribozyme fitness (log ratio)
No unit in the answer, only the number.

Recorded results for 2 variants are shown here.
[[record]]
mutation_list = "U15C C93U A122U"
result = -0.873

[[record]]
mutation_list = "A19U A40U C54A A60G C96U"
result = -2.61


Query: # polymerase ribozyme fitness (log ratio) lookup, item G71C G84A A119U
Response: -2.68

Query: # polymerase ribozyme fitness (log ratio) lookup, item A52C U55G
Response: -3.84
